Biological target: Nuclear receptor subfamily 1 group I member 3 (Homo sapiens) (UniProt Q14994)
Sequence (Q14994 whole entry, looked up): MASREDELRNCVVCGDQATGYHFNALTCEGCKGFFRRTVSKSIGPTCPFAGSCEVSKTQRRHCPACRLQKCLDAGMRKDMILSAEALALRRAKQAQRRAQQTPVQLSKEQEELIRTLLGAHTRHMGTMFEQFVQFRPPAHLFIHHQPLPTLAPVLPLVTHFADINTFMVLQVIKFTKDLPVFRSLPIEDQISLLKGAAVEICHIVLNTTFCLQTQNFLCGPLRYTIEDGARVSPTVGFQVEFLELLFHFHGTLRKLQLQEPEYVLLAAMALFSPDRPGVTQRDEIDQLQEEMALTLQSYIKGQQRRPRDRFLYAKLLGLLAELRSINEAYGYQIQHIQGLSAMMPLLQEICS
Assay: qHTS assay to identify small molecule antagonists of the constitutive androstane receptor (CAR) signaling pathway (AID 1224838);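 further: HepG2 cells stably expressing hCAR with CYP2B6 luciferase reporter stimulated by CITCO; nearly all actives have a fitted effect of over 40% in size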
Details: HepG2-CYP2B6-hCAR luciferase, CITCO-stimulated, 24 h; series mostly up to 92.4 µM
Records with an inconclusive call do not appear. Activity calls are given as the source filed them. The call rests on the fitted dose curve; in most records, active means well fitted inhibition curve with a large enough effect in the repeat runs; inconclusive means weak or mixed curves, or effect the other way; inactive means no such curve, though single readings can be large or run the other way.
One label from this list, please: active, inactive

See these solved cases before continuing.
- Structure: "CCCCCCCCCOC(=O)c1ccc(O)cc1"
  Label: "inactive"
- Structure: "Cc1onc(-c2c(Cl)cccc2Cl)c1C(=O)N[C@@H]1C(=O)N2[C@@H]1SC(C)(C)[C@@H]2C(=O)O"
  Label: "inactive"

Lab log entry: Clc1ccc2cc3ccccc3cc2c1 — outcome as called in the assay?
inactive

Tell me the assay call for CCCCCCCC[P+](CCCCCCCC)(CCCCCCCC)CCCCCCCC please.
active

Given NC(=O)NS(=O)(=O)c1ccc(N)cc1 , state the outcome it received in this test.
inactive

Returns: the outcome recorded for NNc1nc(-c2ccc(N)cc2)cs1 in this assay.
inactive

Tell me the recorded outcome of this test for CN(C)[C@@H]1C(=O)C(C(N)=O)=C(O)[C@@]2(O)C(=O)C3=C(O)c4c(O)cccc4C[C@H]3C[C@@H]12 .
inactive

----------
Target: Estrogen receptor (Homo sapiens) (UniProt P03372)
Sequence (P03372 whole entry, looked up): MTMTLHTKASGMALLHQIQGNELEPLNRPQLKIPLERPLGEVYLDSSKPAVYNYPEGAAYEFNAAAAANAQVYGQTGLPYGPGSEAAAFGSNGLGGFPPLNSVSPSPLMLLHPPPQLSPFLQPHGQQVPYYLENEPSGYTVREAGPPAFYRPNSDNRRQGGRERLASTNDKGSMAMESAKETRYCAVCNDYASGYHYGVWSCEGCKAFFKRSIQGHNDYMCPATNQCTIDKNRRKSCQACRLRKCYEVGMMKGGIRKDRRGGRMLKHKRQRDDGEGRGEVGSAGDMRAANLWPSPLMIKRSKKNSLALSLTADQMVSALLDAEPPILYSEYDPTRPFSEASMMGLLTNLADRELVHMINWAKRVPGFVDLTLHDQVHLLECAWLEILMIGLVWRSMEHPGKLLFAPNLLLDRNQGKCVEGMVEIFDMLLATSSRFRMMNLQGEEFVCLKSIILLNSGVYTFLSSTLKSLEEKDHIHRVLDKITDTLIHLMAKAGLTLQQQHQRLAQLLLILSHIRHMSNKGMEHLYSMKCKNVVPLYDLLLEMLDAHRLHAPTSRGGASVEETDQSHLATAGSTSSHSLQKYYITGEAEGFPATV
Assay: qHTS assay to identify small molecule agonists of the estrogen receptor alpha (ER-alpha) signaling pathway using the BG1 cell line (AID 743079); further: on the % scale 0 is the no-effect control and ±100 the full control effect; nearly all actives have a fitted effect of over 20% in size
Conditions: BG1Luc4E2 cells, ERE-luciferase agonist, 22 h; at 70.3 µM (top of the series)
Results filed as inconclusive are left out.
# activation values compiled below
Kindly provide the numeric value in % only, without the unit symbol.

- Structure: "CN1CCN(CCC(=O)N2c3ccccc3Sc3ccc(C(F)(F)F)cc32)CC1"
  Study system: "Estrogen receptor (Homo sapiens) (UniProt P03372)"
  Measured property: "activation"
  Unit info: "%"
  Readout number: -0.0617

Specify the recorded activation for CCc1oc2ccccc2c1C(=O)c1cc(Br)c(O)c(Br)c1 , system: Estrogen receptor (Homo sapiens) (UniProt P03372).
-23.9

Please respond with reported activation (system Estrogen receptor (Homo sapiens) (UniProt P03372)) for CN(C)c1ccc(C2(c3ccc(N(C)C)cc3)OC(=O)c3cc(N(C)C)ccc32)cc1 .
-6.04

Answer with activation of CCCCCCCCOc1ccccc1C(=O)Nc1ccc(C(=O)OCC[N+](C)(CC)CC)cc1 measured for Estrogen receptor (Homo sapiens) (UniProt P03372).
-29.5

----------
Test: qHTS assay for small molecule disruptors of the mitochondrial membrane potential - cell viability (AID 720634); further: nearly all actives have a fitted effect of over 20% in size
Details: HepG2 viability, ATP luminescence (CellTiter-Glo), 1 h; series mostly up to 83.2 µM
Records with an inconclusive call do not appear. The source made the active and inactive calls. Calls come from the whole dose curve.
Outcome (select one): t = active, f = inactive

Below are worked cases with known answers.
- Molecule: "ON=C1CCCC1"
  Label: "f"
- Molecule: "Cc1cc(O)c(Cl)c(C)c1Cl"
  Label: "t"
- Molecule: "NNc1nc(-c2ccc(N)cc2)cs1"
  Label: "f"
- Molecule: "C[n+]1ccn(Cc2ccccc2)c1"
  Label: "f"
- Molecule: "CCN(C(=O)c1cc(C)cc(OC[C@H](C)Nc2ccncc2)c1)C(C)C"
  Label: "f"

Per the records of this test, what outcome belongs to CC(C)OC(=O)c1cc2c(OCC(O)CNC(C)(C)C)cccc2[nH]1 (configuration not stated) ?
f

State the result this test recorded for CCCCCCCCCCCCCC[P+](CCCC)(CCCC)CCCC (tested in a mixture with another compound) .
t

----------
Assay: qHTS assay to identify small molecule agonists of the androgen receptor (AR) signaling pathway in the presence of an antagonist - cell viability counter screen (AID 1259379); further: nearly all actives have a fitted effect of over 25% in size
Details: MDA-kb2 viability, CellTiter-Fluor, 16 h; series mostly up to 92.4 µM
Records with an inconclusive call do not appear. Calls of active or inactive are those of the source. The call rests on the fitted dose curve; in most records, active means well fitted cell-killing curve with a large enough effect in the repeat runs; inconclusive means weak or mixed curves, or effect the other way; inactive means flat fitted curve, though single readings scatter.
Can you answer with just one of these options? 1 (yes) = active, 0 (no) = inactive

Example entries and their recorded answers appear below.
- Structure: "CN1CCN(CCC(=O)N2c3ccccc3Sc3ccc(C(F)(F)F)cc32)CC1"
  Label: "1 (yes)"
- Structure: "COc1ccc(CN2CCN(C(c3ccc(F)cc3)c3ccc(F)cc3)CC2)c(OC)c1OC"
  Label: "1 (yes)"
- Structure: "[Cl][Bi]([Cl])([c]1ccccc1)([c]1ccccc1)[c]1ccccc1"
  Label: "1 (yes)"
- Structure: "O=C(O)c1c(Cl)cccc1Cl"
  Label: "0 (no)"

Let's switch to this compound now.
# fetch the recorded call for CCCCCCCCCCCCCCCC(=O)OC[C@H](O)[C@H]1OC(=O)C(O)=C1O here
0 (no)

----------
Assay: qHTS assay to identify small molecule agonists of the AP-1 signaling pathway - cell viability counter screen (AID 1159525); further: nearly all actives have a fitted effect of over 55% in size
Details: ME-180 (cervical carcinoma) AP-1-bla cells viability, ATP luminescence, 5 h; series mostly up to 76.8 µM
Records with an inconclusive call do not appear. Active and inactive are the calls of the source. Calls come from the whole dose curve.
# valid calls are 1 for active, -1 for inactive; nothing else

Consider the following illustrative entries.
- Compound: "CCCCCCCCCCCCCCCS(=O)(=O)Oc1ccccc1"
  Label: -1
- Compound: "N/C(=N\\N=C\\c1ccc(Cl)cc1)N/N=C/c1ccc(Cl)cc1"
  Label: 1
- Compound: "Clc1ccc2nsnc2c1NC1=NCCN1"
  Label: -1
- Compound: "C[n+]1cc2c3c(ccc2c2ccc4cc5c(cc4c21)OCO5)OCO3"
  Label: 1
- Compound: "CN(C)c1ccc(C2(c3ccc(N(C)C)cc3)OC(=O)c3cc(N(C)C)ccc32)cc1"
  Label: -1
- Compound: "CCN(Cc1cccnc1)C(=O)c1cccc(Cl)c1[C@]1(C)C(=O)N(Cc2ccc(OC)cc2OC)c2ccc(Cl)cc21"
  Label: -1
- Compound: "Cc1cc(N)c(S(=O)(=O)O)cc1Cl"
  Label: -1
- Compound: "CC(C)CCCCCCCCCCCCCCC(=O)O"
  Label: 1

Hello, I am checking results. What call was entered for S=c1[nH]c2ccccc2s1 ?
-1

Which outcome did this test record for the compound CCCCCCCC[N+](CCCCCCCC)(CCCCCCCC)CCCCCCCC ?
1

Which outcome was assigned to CN1CCN(CCC(=O)N2c3ccccc3Sc3ccc(C(F)(F)F)cc32)CC1 in this test?
-1

----------
Assay: A CellTox Green Cytotoxicity Assay to monitor cytotoxicity in HepG2 cells - 24 hour (AID 1224878); further: nearly all actives have a fitted effect of over 45% in size; further: potency means the concentration at half of the fitted maximal effect; on Cytotoxicity: on the % scale 0 is the no-effect control and ±100 the full control effect
Settings: CellTox Green fluorescence; series mostly up to 76.8 µM
Results filed as inconclusive are left out. The source made the active and inactive calls. Calls follow the shape of the dose curve; as a rule, active = well fitted activation curve with a large enough effect in the repeat runs; inconclusive = weak or mixed curves; inactive = flat fitted curve, though single readings scatter.
Measured property: Potency

- Compound: "Oc1cccc2cc3cccc(O)c3c(O)c12"
  Potency: "inactive"
- Compound: "O=C(N/N=C/c1ccccc1O)c1ccncc1"
  Potency: "inactive"
- Compound: "C[n+]1ccn(Cc2ccccc2)c1"
  Potency: "inactive"
- Compound: "C/C=C(\\C)C(=O)OCc1ccccc1"
  Potency: "inactive"
- Compound: "CCCC1O[C@@H]2C[C@H]3[C@@H]4CCC5=CC(=O)C=C[C@]5(C)[C@H]4[C@@H](O)C[C@]3(C)[C@]2(C(=O)CO)O1 (stereo partly specified)"
  Potency: "inactive"
- Compound: "CC(C)CCCCCCCCCCCCCCC(=O)O"
  Potency: "inactive"
- Compound: "O=C1c2ccccc2Cc2ccccc21"
  Potency: "inactive"
- Compound: "CCCCCCCCCCCCc1ccc(O)cc1"
  Potency: "13.8 µM (active)"

Fill in Potency for record COC(=O)C1=C(C)NC(C)=C(C(=O)OCC(C)C)C1c1ccccc1[N+](=O)[O-] (stereo unspecified)
inactive

Tell me measured Potency for Cc1cccc2c1cc1ccc3cccc4ccc2c1c34 please.
inactive

Dear colleague, please send me the reported Potency for CCCC(=O)OC[C@@H](OC(=O)CCC)[C@@H](OC(=O)CCC)[C@H](Cn1c2nc(=O)[nH]c(=O)c-2nc2cc(C)c(C)cc21)OC(=O)CCC when you can.
21.3 µM (active)

----------
Target: Cytochrome P450 3A4 (Homo sapiens) (UniProt P08684)
Sequence (P08684 whole entry, looked up): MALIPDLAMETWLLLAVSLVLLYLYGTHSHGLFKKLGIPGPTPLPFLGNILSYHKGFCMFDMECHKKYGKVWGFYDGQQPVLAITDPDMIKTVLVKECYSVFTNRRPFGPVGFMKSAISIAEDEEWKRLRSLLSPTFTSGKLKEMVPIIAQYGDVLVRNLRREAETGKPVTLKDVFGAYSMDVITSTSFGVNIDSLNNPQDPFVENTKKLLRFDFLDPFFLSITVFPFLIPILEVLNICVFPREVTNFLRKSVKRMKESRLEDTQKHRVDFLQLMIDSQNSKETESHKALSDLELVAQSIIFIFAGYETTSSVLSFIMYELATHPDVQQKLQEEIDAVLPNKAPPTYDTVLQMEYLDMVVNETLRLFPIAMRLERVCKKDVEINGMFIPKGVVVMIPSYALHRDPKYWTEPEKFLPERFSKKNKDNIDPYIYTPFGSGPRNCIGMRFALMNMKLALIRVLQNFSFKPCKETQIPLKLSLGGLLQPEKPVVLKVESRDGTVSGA
Experiment: Cytochrome P450 Family 3 Subfamily A Member 4 (CYP3A4) small molecule antagonists: luciferase reporter qHTS assay (AID 1671201); further: nearly all actives have a fitted effect of over 50% in size
Settings: P450-Glo CYP3A4 enzyme, luciferin luminescence, 1 h; series mostly up to 115 µM
Results filed as inconclusive are left out. Active and inactive are the calls of the source. The call rests on the fitted dose curve; in most records, active means well fitted inhibition curve with a large enough effect in the repeat runs; inconclusive means weak or mixed curves; inactive means no such curve, though single readings can be large or run the other way.
Please reply with one of these outcomes: active, inactive

Solved entries:
- Compound: "CCCCCCCCn1sc(Cl)c(Cl)c1=O"
  Label: "active"
- Compound: "Clc1ccc2cc3ccccc3cc2c1"
  Label: "inactive"
- Compound: "CCC(N)(CO)CO"
  Label: "inactive"
- Compound: "Clc1ccc2n[nH]nc2c1"
  Label: "inactive"
- Compound: "CCC(C)Nc1ccc(NC(C)CC)cc1 (stereo not drawn)"
  Label: "active"
- Compound: "CC/C(=C(\\c1ccc(O)cc1)c1ccc(OCCN(C)C)cc1)c1ccccc1"
  Label: "active"
- Compound: "CO[Si](CCCNc1ccccc1)(OC)OC"
  Label: "active"
- Compound: "NNc1nc(-c2ccc(N)cc2)cs1"
  Label: "active"
- Compound: "CCCC(C)c1ccccc1O (stereo not drawn)"
  Label: "inactive"
- Compound: "CCCCCCCCCCCCCCCCCC[N+](C)(C)C"
  Label: "active"

Next, consider the following compound.
Give the logged outcome of this assay for the following compound: Nc1c2ccccc2nc2ccccc12
inactive
